Test system: Fibrinogen (Alexa647-labelled)
Test: fibrinogen binders on compound microarrays, profiling panel, artefact control for SMM control-protein annotation, biochemical, small-molecule microarray, 635/667 nm fluorescence (AID 1131);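 note: z-score merges 667 nm fluorescence with per-spot signal-to-noise over triplicate slides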
Settings: fibrinogen-A647 binding fluorescence, higher = more signal
Quick reference for composite z-score among some molecules
Property name: composite z-score

CCOC(=O)[C@H](CC(C)C)NC(=O)CCC1CC(OC(=O)NCCc2ccc(F)cc2)CC2(CCCC(COC(=O)NCCOC)O2)O1 (stereo partly specified); 0.416
O=C1C[C@@H](O)[C@@H](O)[C@@H]2[C@@H]3C(=O)N(c4ccc(F)cc4F)C(=O)[C@@H]3CC[C@H]12; 0.428
C[C@@H]1CC[C@@H](C(=O)O)N[C@H]1c1cccc(N2CCOCC2)c1; 0.301
C[C@@H]1C=CCC(=O)OC[C@H](C)C(=O)N[C@@H](Cc2ccccc2)C(=O)OC1; 0.0608
C[C@H]1CC[C@@H](C(=O)O)N[C@@H]1c1ccc(C#Cc2ccccc2)cc1; 0.918
C[C@H]1CC[C@H]2C(=O)N[C@H](Cc3ccccc3)C(=O)N2[C@@H]1c1ccccc1; -0.0797
CCCC[C@H]1CN2[C@@H](CC[C@@H](C)[C@@H]2c2ccc(Br)cc2)C(=O)O1; 0.831
CC(CCN1CCCCc2nc(C)c(C)cc21)=NO[C@@H](C)c1cc(-c2c(C)cc(C)cc2C)no1; -0.317
O=C(NN=C1C[C@@H](O)[C@@H](O)[C@@H]2[C@@H]3C(=O)N(Cc4ccc5c(c4)OCO5)C(=O)[C@@H]3CC[C@@H]12)OCc1ccccc1; 0.057
CCCNC(=O)OC[C@H]1O[C@H](CCON=C[C@@H](NS(=O)(=O)c2ccc(C)cc2)[C@H](C)C=CCC(=O)OC)C=C[C@@H]1Oc1ccc(OC)cc1; 0.0865
CCCNC(=O)OC[C@H]1O[C@H](CCON=C[C@@H](C)[C@H](OCc2ccccc2)C(C)C)C=C[C@@H]1Oc1ccc(OC)cc1; -0.101
CCOC(=O)NN=C1C[C@@H](O)[C@@H](O)[C@@H]2[C@@H]3C(=O)N(C[C@@H]4CCCO4)C(=O)[C@@H]3CC[C@H]12; 0.835
O=C1[C@H]2[C@H]3[C@H](O)[C@H](O)CC(=NO[C@@H]4O[C@H](CO)[C@@H](O)[C@H](O)[C@H]4O)[C@@H]3CC[C@H]2C(=O)N1c1cccc(Oc2ccccc2)c1; 0.578
CC(C)=CCCC(C)=CCON=C1[C@H]2CCn3c(=O)n(-c4ccccc4)c(=O)n3[C@H]2[C@H](O)[C@@H]2O[C@H]12; 0.712
CCOC(=O)[C@H](CC(C)C)NC(=O)CCC1CC(OC(=O)NCc2ccc3c(c2)OCO3)CC2(CCCC(COC(=O)NCCOC)O2)O1 (stereo partly specified); 0.942
CCOC(=O)[C@H](Cc1ccccc1)NC(=O)CCC1CC(OC(=O)NCc2ccc3c(c2)OCO3)CC2(CCCC(COC(=O)NCCCN3CCCC3=O)O2)O1 (stereo partly specified); 0.87
COC(=O)CC=C[C@@H](C)[C@@H](C=NOC(C)CN1CCCCc2nc(C)c(C)cc21)OC (stereo partly specified); 0
CO[C@@H]1C=CCC(=O)N[C@@H](C)C(=O)OC[C@@H](OC)[C@H](C)C=CCC(=O)OC[C@H]1C; -0.556
COc1cccc([C@H]2Oc3ccc(OC)cc3C(=NOCC[C@@H]3C=C[C@H](OC(C)=O)[C@@H](COC(C)=O)O3)[C@@H]2O)c1; 0.967
C[C@@H]1CC[C@H]2C(=O)O[C@@H](CN=[N+]=[N-])CN2[C@H]1c1ccc(Br)cc1; 0.952
CCN1C(=O)[C@H]2[C@H]3[C@H](O)[C@H](O)CC(=NO[C@@H]4O[C@H](CO)[C@@H](O)[C@H](O)[C@H]4O)[C@H]3CC[C@H]2C1=O; 0.16
Cc1cc2c(nc1C)CCCCN2CC(O)CN1CCCc2nc(-c3ccc(Br)cc3)ccc21 (stereo unspecified); -0.564
CC#CCOCCC=C1c2ccccc2[C@@H](OC)[C@@H]1C; 0.329
O=C1[C@H]2[C@H]3[C@H](O)[C@H](O)CC(=NOC[C@@H](O)COCc4ccco4)[C@@H]3CC[C@H]2C(=O)N1Cc1ccccc1; -0.956
CO[C@H]1COC(=O)[C@H](C)COC(=O)[C@H](C)NC(=O)CC=C[C@H]1C; -1.01
C=C(C)C(=O)OC[C@H]1CN2[C@@H](CC[C@@H](C)[C@@H]2c2ccc(Br)cc2)C(=O)O1; -0.613
CC(CCN1CCCc2nc(C)c(C)cc21)=NOC[C@@H](C)[C@H](OCc1ccccc1)C(C)C; -0.9
CO[C@H]1COC(=O)[C@H](CCSC)NC(=O)CC=C[C@@H](C)[C@H](OC)COC(=O)[C@@H](OCc2ccccc2)C=C[C@@H]1C; -0.84
COC(=O)CC=C[C@@H](C)[C@@H](C=NOC[C@@H](O)COCc1ccco1)OC; -1.2
CC(CCN1CCc2nc(-c3ccccc3)c(-c3ccccc3)cc2C1)=NO[C@H](C)c1cn([C@H](CO)Cc2ccccc2)nn1; 0.689
COc1ccc(O[C@H]2C=C[C@@H](c3ccccc3)O[C@@H]2COC(=O)NCc2cccc3ccccc23)cc1; -0.138
